Would you mind telling me the reported growth inhibition of each entry?
Assay: NCI Yeast Anticancer Drug Screen. Data for the rad50 strain (AID 155);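 note: 0% = growth of vehicle-only cultures of the same strain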
Conditions: S. cerevisiae rad50 strain growth inhibition; at 50.0 µM; hits give high values
The panel holds about 79,000 compounds, 15% with a hit somewhere; the sample as a whole holds those more often. Activity calls are given as the source filed them. Cut-off read from the data, not from the text of the source: active = growth inhibition above about 70%; inactive = the rest.

Below is a list of compounds. For each, state its recorded growth inhibition.
1. CN(C)CCC(=O)C(=Cc1ccc(O)cc1)C(=O)CCN(C)C
2. CC(/C=N/N(C)C1=NCCCN1)=N/N(C)C1=NCCCN1

1: -35.2% (inactive); 2: 14.3% (inactive)

Below is a list of compounds. For each, state its recorded growth inhibition.
1. CC(C)CC(O)(CC(C)C)C(CCC(=O)Nc1ccccc1)C(=O)Nc1ccccc1 (stereo not given)
2. N#Cc1ccc(NN=NCCCCCCl)cc1
3. N#Cc1ccc(CSC2=C(c3ccc(Cl)cc3)S/C(=C3\SC(SCc4ccc(C#N)cc4)=C(c4ccc(Cl)cc4)S3)S2)cc1

26.1% (inactive)
22.7% (inactive)
-16.8% (inactive)

Below is a list of compounds. For each, state its recorded growth inhibition.
1. O=c1ccc(-c2ccccc2)n[nH]1
2. COc1ccc(Nc2nc3c([nH]2)c(=O)n(C)c(=O)n3C)cc1

1: -25.4% (inactive); 2: -15.6% (inactive)

Below is a list of compounds. For each, state its recorded growth inhibition.
1. c1ccc(-c2c3ccccc3c(-c3ccccc3)c3ccccc23)cc1
2. CCNC(=S)NCCc1c[nH]c2ccccc12
3. C=C1CCC1
4. Nc1nc(N)nc(-c2ccco2)n1

1. 6.2% (inactive)
2. -57% (inactive)
3. 1.05% (inactive)
4. -15.1% (inactive)

###

Assay: NCI Yeast Anticancer Drug Screen. Data for the rad50 strain (AID 155);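 note: 0% = growth of vehicle-only cultures of the same strain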
Conditions: S. cerevisiae rad50 strain growth inhibition; at 50.0 µM; hits give high values
About 79,000 compounds went through this panel and 15% of them were active in at least one assay; those are over-represented in the sample as a whole.
Would you mind telling me the reported growth inhibition of each entry?
Numbers only, in %.

Reference set (5 entries):
>>> print(df.to_string())
                                   compound  numeric_value
0  CC12CCC=CC1=CC(=O)CC2 (stereo unspecified)           1.35
1  O=c1ccc2c(O)c([N+](=O)[O-])cc([N+](=O)[O-])c2[nH]1             10
2  CC(=O)C1(C(C)=O)OC2c3ccccc3C=CN2C=C1C=O (stereo unspecified)            6.6
3                       Fc1ccc(Cl)c2cccnc12           2.75
4          CC(C)(C)S(=O)(=O)C[N+]1(C)CCOCC1           37.1

Consider the additional compound presented here.
Please give the measured growth inhibition for this compound: CC1(C)OCC(C2OC3OC(C)(C)OC3/C2=N/NC(=O)c2cc3cc(OCc4ccccc4)ccc3[nH]2)O1 (stereo unspecified)
82.5

###

Would you mind telling me the reported growth inhibition of each entry?
Assay: NCI Yeast Anticancer Drug Screen. Data for the bub3 strain (AID 167)
Conditions: S. cerevisiae bub3 mutant strain, at 50.0 µM, hits give high values
Protocol: Growth inhibition of yeast strains with defined genetic alterations is measured as a screen for potential anti-cancer activity. Selected strains with alterations in DNA damage repair or cell cycle control were exposed to compounds and growth inhibition was measured relative to vehicle treated controls. The strain used in this assay is bub3
About 79,000 compounds went through this panel and 15% of them were active in at least one assay; those are over-represented in the sample as a whole.
Answers are plain numbers, in %.

Reference set (3 entries):
>>> print(df.to_string())
                                   compound  numeric_value
0        CCOC(=O)c1ncn2c1[nH]c(=S)c1ccccc12          -17.9
1                 Cc1ccc(C(=O)Oc2ccccc2)cc1           -7.2
2  COc1ccc2nc(N/N=C/C(C)=N/Nc3cc(C)c4cc(OC)ccc4n3)cc(C)c2c1           0.15

Below is a list of compounds. For each, state its recorded growth inhibition.
1. CCCCCCCC(=O)N(CC)CC
2. CC(=O)c1cc([N+](=O)[O-])c(O)cc1O
3. O=[N+]([O-])c1ccc2[nH]c(=S)n(/C=C(/c3ccccc3)S(=O)Cc3ccccc3)c2c1 (stereo not drawn)
4. COC(=O)/C(=C\SCc1ccccc1)NC(C)=O
5. Nc1ncnc2c1nc(-c1ccccc1)n2C1OC(CO)C(O)C1O (stereo not drawn)
6. N#CC(C#N)N=Cc1ccncc1

[1.6, 25.9, -12, -24.2, 35.5, -1.1]

Below is a list of compounds. For each, state its recorded growth inhibition.
1. Nn1cnc2nccnc2c1=O
2. Cc1ccc(NC(=O)OCC2CC3C=CC2C3)cc1NC(=O)OCC1CC2C=CC1C2 (stereo not drawn)
3. CC[Si](C)(C)COC(N)=O

1: 2.4; 2: -3.25; 3: -4.15

Please give the measured growth inhibition for this compound: CCOC(=N)Cc1ccccc1
23.4

###

Test: NCI Yeast Anticancer Drug Screen. Data for the mec2-1 strain (AID 157)
Conditions: S. cerevisiae mec2-1 strain, at 50.0 µM, hits give high values
About 79,000 compounds went through this panel and 15% of them were active in at least one assay; those are over-represented in the sample as a whole.
Would you mind telling me the reported growth inhibition of each entry?
Give bare numbers, in %.

Reference set (3 entries):
>>> print(df.to_string())
                                   molecule  property_measured  endpoint_unit  numeric_value
0                          C=CC(=O)OCCOCCOC  growth inhibition              %          -15.9
1  CC1C2CC(CC(=O)N2)C1(C)C (stereo unspecified)  growth inhibition              %           21.6
2       COc1cc(OC)c(NC(=O)C(Cl)(Cl)Cl)cc1Cl  growth inhibition              %             42

Below is a list of molecules. For each, state its recorded growth inhibition.
1. CCCCCCCCOC(=O)Nc1ccc(S(=O)(=O)CC)cc1
2. CC(=O)NCCc1ccc(C(=O)O)cc1
3. Oc1c(Cl)cc(Cl)cc1C=Nc1ccc2c(ccc3c4ccccc4ccc23)c1

1. -7.2
2. -1
3. 2.4

Below is a list of molecules. For each, state its recorded growth inhibition.
1. COc1c(N)c(C)nc(Cl)c1C#N
2. O=C1c2cccc3cc([N+](=O)[O-])cc(c23)C(=O)N1CC1CCCO1 (stereo unspecified)
3. O=NNc1nc2ncccc2cc1-c1ccccc1Cl
4. c1ccc(-c2ccc(-c3c(-c4ccccc4)ccc(-c4ccccc4)c3-c3ccccc3)cc2)cc1
5. O=C1OC(=O)C2C1C1c3ccccc3C2(O)c2ccccc21 (stereo unspecified)
6. COc1cc2c(c(Cl)c1OC)CCN(C)CC2c1ccccc1 (stereo unspecified)
7. CCCC(C)C(O)C(C)C (stereo unspecified)

[2.95, 15.8, -6.05, -0.7, -17.9, -15.3, -19.8]

Below is a list of molecules. For each, state its recorded growth inhibition.
1. Cn1c(N)c(NC(=S)NCC2CCCCC2)c(=O)n(C)c1=O
2. CCc1cccc(C)c1NC(=O)C(=O)CC(=O)CCCO
3. C=CCNC(=O)CCCCCCC/C=C\CCCCCCCC
4. CCC(=O)c1c(O)cc(O)cc1O
5. O=C1CSC(/C(=C\c2ccc(Cl)cc2)c2nc3ccccc3[nH]2)=N1

1. -5
2. 21.7
3. -8.5
4. -15.6
5. 11.2

Below is a list of molecules. For each, state its recorded growth inhibition.
1. Cc1c([N+](=O)[O-])cc(C(C)(C)C)c(OS(=O)(=O)N(C)C)c1[N+](=O)[O-]
2. CCCCCCCCCC(O)CO (stereo unspecified)
3. COc1ccc(-c2nc(N3CCCC3)no2)cc1
4. COc1ccc(C(=O)/C=C/c2ccc(OCCSCCCCCCCCCCSCCOc3ccc(/C=C/C(=O)c4ccc(OC)c(OC)c4)cc3)cc2)cc1OC
5. c1ccc(CN2CCC3(N4CCOCC4)C(C2)N=NN3c2ccccc2)cc1 (stereo unspecified)
6. Cn1c(N2CCCC2)c(C=O)c(=O)n(C)c1=O

[10.4, -20.7, -4.65, -26.1, -9.6, 1.45]

###

Would you mind telling me the reported growth inhibition of each entry?
Assay: NCI Yeast Anticancer Drug Screen. Data for the sgs1 mgt1 strain (AID 161);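 note: 0% = growth of cultures given vehicle only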
Settings: S. cerevisiae sgs1 mgt1 strain, at 50.0 µM, hits give high values
About 79,000 compounds went through this panel and 15% of them were active in at least one assay; those are over-represented in the sample as a whole.
Give bare numbers, in %.

Reference set (4 entries):
In [3]: df
Out[3]:
                                   molecule  property_measured  endpoint_unit  numeric_value
0                  OC(COc1ccccc1)COc1ccccc1  growth inhibition              %           16.4
1    Cc1ccc(N=c2cc(-c3ccccc3)oc3ccccc23)cc1  growth inhibition              %           11.7
2  CCCCOC(=O)CNC(=O)OC/C=C/C#CC#C/C=C/COC(=O)NCC(=O)OCCCC  growth inhibition              %          -24.4
3  O=C1COC(C(O)(c2ccccc2)c2ccccc2)C(=O)N1 (centres undefined)  growth inhibition              %           -1.3

Below is a list of molecules. For each, state its recorded growth inhibition.
1. COc1ccccc1-c1coc2c(ccc3oc(C(C)C)cc32)c1=O
2. CC(=O)c1c(C)[nH]c(C(=O)O)c1C
3. Cc1c(C)c(Cl)c(C)c(C(Cl)(Cl)Cl)c1C
4. NC(=O)C1=CNCCC1

1. 3.25
2. 8.75
3. 2.05
4. -6.35

Below is a list of molecules. For each, state its recorded growth inhibition.
1. CN(C(=O)C1(C(=O)C=[N+]=[N-])CC1)c1ccccc1
2. CCOc1c(N=Nc2ccccc2C)c(-c2ccccc2)nn1C(N)=S
3. CCC1CCC2c3c([nH]c4ccccc34)C3C(=O)N(c4ccc(OC)cc4)C(=O)C3C2C1 (centres undefined)
4. Clc1cc(Cl)c2ncccc2c1
5. CC(C)(C)c1cc(-c2cc(C(C)(C)C)nc(N)n2)nc(N)n1
6. O/N=C(/c1ccccc1)C1CCCCC1
7. CCCCCCCCCCCCCCCC1=NN(c2ccc([N+](=O)[O-])cc2)C(=O)C1
8. COC(=O)CC1(CC(=O)O)SCCS1

1. -14.8
2. 5.4
3. 3.5
4. 3.3
5. -14
6. 13
7. -25.8
8. 11.5

Below is a list of molecules. For each, state its recorded growth inhibition.
1. N#Cc1c(-c2ccccc2)[nH]c2ccc(Cl)cc2c1=O
2. CCCCn1cnc2c(N)ncnc21
3. NNc1ncnc2c1ncn2Cc1ccccc1
4. NNC(=O)C(=O)O
5. Cc1c(Cl)cccc1NC(=O)C(=O)C(C(=O)c1ccccc1-c1ccccc1)C1OC(=O)c2ccccc21 (centres undefined)
6. CCCn1c(SCC)c2ccccc2c1-c1nc(F)nc(F)n1
7. CC(C)(C)OC(=O)N1CCCC1C(=O)Oc1ccc([N+](=O)[O-])cc1 (centres undefined)
8. Cc1cc2c(cc1Cl)SSc1cc(Cl)c(C)cc1S(=O)(=O)Nc1nc(N)nn1C(O)n1nc(N)nc1NS2(=O)=O

1: -21.7; 2: -5.45; 3: 1.75; 4: 20.2; 5: -14.3; 6: -6.75; 7: 11.4; 8: 9.1
